assay_endpoint: IC50

stdin: For the record O=C(Nc1ccc(Oc2ccnc(Cl)c2Cl)c(F)c1)c1nc(-c2ccc(F)c(Cl)c2)cs1 [Compound 51am] , what value of IC50 is listed for EGFR (Homo sapiens, UniProt P00533)?
stdout: > 10 µM

---

What IC50 was measured for each of the following?
- System: FHC
- protocol_notes: MTT cytotoxicity assay, normal FHC cells
- experimental_setup: Homo sapiens, 48 h, read-out: IC50 FHC

stdin: // lookup IC50 for O=C(Nc1ccc(Oc2ncnc3sccc23)c(F)c1)c1nc(-c2ccccc2)cs1 [Compound 51u]
stdout: 48.2 µM

stdin: Requested field: IC50. Item: O=C(Nc1ccc(Oc2ccnc3ccsc23)c(F)c1)c1nc(-c2ccc(F)cc2)cs1 [Compound 51r]
stdout: 51.2 µM

stdin: Param item = COc1cc2nccc(Oc3ccc(NC(=O)c4nc(-c5ccccc5)cs4)cc3F)c2cc1OC [Compound 51j] ; retrieve measured IC50.
stdout: > 100 µM

stdin: Entry under review: O=C(Nc1ccc(Oc2ccnc(Cl)c2)c(F)c1)c1nc(-c2ccc(Cl)cc2)cs1 [Compound 51ad] . Reported IC50?
stdout: 26.5 µM

stdin: Given the entry O=C(Nc1ccc(Oc2ccnc(Cl)c2)c(F)c1)c1nc(-c2ccc3ccccc3c2)cs1 [Compound 51ai] , report its measured IC50.
stdout: > 100 µM

stdin: Please give the measured IC50 for this molecule: COc1cc2nccc(Oc3ccc(NC(=O)c4nc(-c5ccccc5)cs4)cc3C)c2cc1OC [Compound 51n]
stdout: > 100 µM

stdin: Returns the measured IC50 for the input molecule. Input: COc1cc2ncnc(Oc3ccc(NC(=O)c4nc(-c5ccccc5)cs4)cc3F)c2cc1OC [Compound 51o]
stdout: 50.3 µM

stdin: Report IC50 for O=C(Nc1ccc(Oc2ncnc3sccc23)c(F)c1)c1nc(-c2ccc(F)cc2)cs1 [Compound 51v] please.
stdout: 63.3 µM

stdin: I am curious: what IC50 value has been reported for O=C(Nc1ccc(Oc2ccnc(Cl)c2)c(F)c1)c1nc(-c2ccc(F)cc2)cs1 [Compound 51aa] ?
stdout: 24.6 µM

stdin: Entry COc1cc2nccc(Oc3ccc(NC(=O)c4ncc(-c5ccc(F)cc5)s4)cc3)c2cc1OC [Compound 51h] : reported IC50 = ?
stdout: 50.2 µM

Hey, just so you know, these numbers are from paper PMC10467532.
